pIC50: −log10 of the molar value.
hBPGM (Homo sapiens (Human), UniProt P07738) measurements of pIC50, listed per entry.
Sequence (P07738 whole entry, looked up): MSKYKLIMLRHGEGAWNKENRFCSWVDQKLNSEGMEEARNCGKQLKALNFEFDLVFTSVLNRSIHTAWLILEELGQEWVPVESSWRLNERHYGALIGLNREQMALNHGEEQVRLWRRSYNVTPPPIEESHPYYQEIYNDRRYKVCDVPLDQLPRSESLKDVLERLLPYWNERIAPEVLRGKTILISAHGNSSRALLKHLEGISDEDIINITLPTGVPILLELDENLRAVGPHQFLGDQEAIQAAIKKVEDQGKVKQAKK
Experimental endpoint: pIC50

{"Compound": "Cc1nc(CNC(=O)c2cccnn2)sc1-c1csc(-c2cc(O)c(C(=O)O)cc2F)n1 [Example 171]", "Experimental endpoint": "pIC50", "Result comparator": "=", "Number": 7.55}
{"Compound": "Cc1nc(CNC(=O)C2CCN(C)C2)sc1-c1csc(-c2cc(O)c(C(=O)O)cc2F)n1 (stereo not drawn)", "Experimental endpoint": "pIC50", "Result comparator": "=", "Number": 6.31}
{"Compound": "Cc1nc(Cn2c(C)ccc(C#N)c2=O)sc1-c1cccc(-c2ccc(C(=O)O)c(O)c2)c1", "Experimental endpoint": "pIC50", "Result comparator": "=", "Number": 6.22}
{"Compound": "Cc1nc(C)c(-c2cccc(-c3ccc(C(=O)O)c(O)c3)n2)s1", "Experimental endpoint": "pIC50", "Result comparator": "=", "Number": 5.92}
{"Compound": "Cc1nc(CNc2ccn(C)n2)sc1-c1csc(-c2cc(O)c(C(=O)O)cc2F)n1", "Experimental endpoint": "pIC50", "Result comparator": "=", "Number": 7.05}
{"Compound": "Cc1nc(COc2ncccn2)sc1-c1cccc(-c2cnc(C(=O)O)s2)n1", "Experimental endpoint": "pIC50", "Result comparator": "=", "Number": 4.96}
{"Compound": "Cc1nc(C)c(-c2csc(-c3cc(O)c(C(=O)O)cc3F)n2)s1", "Experimental endpoint": "pIC50", "Result comparator": "=", "Number": 6.49}
{"Compound": "COC(=O)NCc1nc(C)c(-c2cccc(-c3ccc(C(=O)O)c(O)c3)c2)s1", "Experimental endpoint": "pIC50", "Result comparator": "=", "Number": 6.54}
{"Compound": "Cc1nc(CO)sc1-c1cccc(-c2ccc(C(=O)NCC(=O)N3CCC(C(=O)O)CC3)cc2)n1", "Experimental endpoint": "pIC50", "Result comparator": "<", "Number": 4.60}
{"Compound": "Cc1nc(COc2ncccn2)sc1-c1cccc(-c2ccc(C(=O)NCC(=O)N3CCC(C(=O)O)CC3)cc2)n1", "Experimental endpoint": "pIC50", "Result comparator": "<", "Number": 4.60}
{"Compound": "Cc1ccc(C#N)c(OCc2nc(C)c(-c3cccc(-c4ccc(C(=O)O)c(O)c4)c3)s2)n1", "Experimental endpoint": "pIC50", "Result comparator": "=", "Number": 5.92}
{"Compound": "Cc1ccc(C#N)c(OCC(=O)N2CCC(c3cccc(-c4ccc(C(=O)O)c(O)c4)c3)C2)n1 (stereo not drawn)", "Experimental endpoint": "pIC50", "Result comparator": "=", "Number": 4.35}
{"Compound": "Cc1nc(Cc2cccnc2)sc1-c1cccc(-c2ccc(C(=O)O)cc2)c1", "Experimental endpoint": "pIC50", "Result comparator": "=", "Number": 6.07}
{"Compound": "Cc1nc(CNC(=O)C(C)(C)C)sc1-c1cccc(-c2ccc(C(=O)O)cc2)c1", "Experimental endpoint": "pIC50", "Result comparator": "=", "Number": 5.66}
{"Compound": "Cc1nc(COC(N)=O)sc1-c1cccc(-c2ccc(C(=O)O)c(O)c2)c1", "Experimental endpoint": "pIC50", "Result comparator": "=", "Number": 6.00}
{"Compound": "Cc1nc(COc2ccc(F)cn2)sc1-c1cccc(-c2ccc(C(=O)O)c(O)c2)n1", "Experimental endpoint": "pIC50", "Result comparator": "=", "Number": 6.37}
{"Compound": "Cc1nc(COc2ncccn2)sc1-c1cccc(-c2ccc(C(=O)O)c(C#N)c2)n1", "Experimental endpoint": "pIC50", "Result comparator": "=", "Number": 6.74}
{"Compound": "Cc1nc(CNC(=O)C(C)C)sc1-c1csc(-c2cc(O)c(C(=O)O)cc2F)n1", "Experimental endpoint": "pIC50", "Result comparator": "=", "Number": 7.28}
{"Compound": "COC(=O)NCc1nc(C)c(-c2csc(-c3cc(NC(=O)OC)c(C(=O)O)cc3F)n2)s1", "Experimental endpoint": "pIC50", "Result comparator": "=", "Number": 5.25}
{"Compound": "Cc1nc(C)c(-c2cccc(-c3ccc(C(=O)O)cc3)c2F)s1", "Experimental endpoint": "pIC50", "Result comparator": "=", "Number": 4.55}
{"Compound": "Cc1nc(CNC(=O)C2COC2)sc1-c1cccc(-c2ccc(C(=O)O)c(O)c2)c1", "Experimental endpoint": "pIC50", "Result comparator": "=", "Number": 6.00}
{"Compound": "Cc1nc(CNC(=O)C2CCN(C)CC2)sc1-c1csc(-c2cc(O)c(C(=O)O)cc2F)n1", "Experimental endpoint": "pIC50", "Result comparator": "=", "Number": 6.34}
{"Compound": "Cc1nc(CCC(N)=O)sc1-c1cccc(-c2ccc(C(=O)O)c(O)c2)c1", "Experimental endpoint": "pIC50", "Result comparator": "=", "Number": 5.11}
{"Compound": "CCc1nc(C)c(-c2cccc(-c3ccc(C(=O)O)c(O)c3)c2)s1", "Experimental endpoint": "pIC50", "Result comparator": "=", "Number": 5.80}
{"Compound": "Cc1nc(CNC(=O)C(N)=O)sc1-c1csc(-c2cc(O)c(C(=O)O)cc2F)n1", "Experimental endpoint": "pIC50", "Result comparator": "=", "Number": 6.92}
{"Compound": "Cc1nc(CNC(=O)OC2CC2)sc1-c1csc(-c2cc(O)c(C(=O)O)cc2F)n1", "Experimental endpoint": "pIC50", "Result comparator": "=", "Number": 7.02}
{"Compound": "Cc1nc(C)c(-c2cccc(-c3ccc(C(=O)O)c(C(F)(F)F)c3)c2)s1", "Experimental endpoint": "pIC50", "Result comparator": "=", "Number": 4.00}
{"Compound": "Cc1nc(CNC(=O)C2CC2)sc1-c1csc(-c2ccc(C(=O)O)c(O)c2)c1", "Experimental endpoint": "pIC50", "Result comparator": "=", "Number": 7.00}
{"Compound": "Cc1nc(CNC(=O)C(C)(C)C)sc1-c1csc(-c2cc(O)c(C(=O)O)cc2F)c1", "Experimental endpoint": "pIC50", "Result comparator": "=", "Number": 7.08}
{"Compound": "Cc1nc(CNS(C)(=O)=O)sc1-c1csc(-c2cc(O)c(C(=O)O)cc2F)n1", "Experimental endpoint": "pIC50", "Result comparator": "=", "Number": 6.59}
{"Compound": "Cc1nc(C)c(-c2nc(-c3ccc(C(=O)O)c(O)c3)co2)s1", "Experimental endpoint": "pIC50", "Result comparator": "=", "Number": 5.30}
{"Compound": "Cc1nc(C)c(-c2nsc(-c3ccc(C(=O)O)c(O)c3)n2)s1", "Experimental endpoint": "pIC50", "Result comparator": "=", "Number": 5.89}
{"Compound": "COC(=O)NCc1nc(C)c(-c2csc(-c3ccc(C(=O)O)cc3F)n2)s1", "Experimental endpoint": "pIC50", "Result comparator": "=", "Number": 5.89}
